Reference source for all entries: patent US20230012273A1

This section presents binders with their documented pEC50 values.
biological target: T1, full-length human SIRPβ1 (NP_006056.2) on cells (human, UniProt O00241 30-398); assay: flow cytometry, U937 SIRPα-KO transfectants
T1 construct: also called β1 WT
T1 sequence (O00241 30-398): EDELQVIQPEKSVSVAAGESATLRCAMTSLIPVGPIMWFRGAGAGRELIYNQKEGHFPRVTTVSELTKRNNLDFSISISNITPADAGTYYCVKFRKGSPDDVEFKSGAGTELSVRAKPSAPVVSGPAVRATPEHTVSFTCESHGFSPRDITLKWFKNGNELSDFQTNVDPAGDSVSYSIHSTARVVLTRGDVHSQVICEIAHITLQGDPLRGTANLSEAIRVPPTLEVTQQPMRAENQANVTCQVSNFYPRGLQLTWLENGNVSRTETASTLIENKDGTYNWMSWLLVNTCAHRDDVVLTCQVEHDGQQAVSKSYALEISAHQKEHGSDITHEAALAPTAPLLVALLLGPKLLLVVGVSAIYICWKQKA
pEC50: −log10 of the molar value.
measured-metric: pEC50

>>> numeric_value("anti-SIRPα antibody SIRP AB11 (antibody, V domains shown) VH: QVQLVQSGAEVKKPGASVKVSCKASGYTFRGYGISWVRQAPGQGLEWMGWISAYGGETNYAQKLQGRVTMTTDTSTSTAYMELRSLRSDDTAVYYCAREAGSSWYDFDLWGRGTLVTVSS VL: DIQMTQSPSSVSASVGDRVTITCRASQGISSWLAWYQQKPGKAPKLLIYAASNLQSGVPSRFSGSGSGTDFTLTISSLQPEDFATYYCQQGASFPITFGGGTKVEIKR")
10.00
>>> numeric_value("Anti-SIRPα antibody KWAR23 (antibody, V domains shown) VH: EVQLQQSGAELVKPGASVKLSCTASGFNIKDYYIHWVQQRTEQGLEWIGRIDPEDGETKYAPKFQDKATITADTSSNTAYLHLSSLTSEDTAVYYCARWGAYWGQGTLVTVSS VL: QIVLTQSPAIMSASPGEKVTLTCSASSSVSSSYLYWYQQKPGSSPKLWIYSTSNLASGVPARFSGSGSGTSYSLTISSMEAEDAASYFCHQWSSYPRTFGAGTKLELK")
9.70
>>> numeric_value("Antibody A4 (antibody, human IgG1, kappa, L234A L235A, V domains shown) VH: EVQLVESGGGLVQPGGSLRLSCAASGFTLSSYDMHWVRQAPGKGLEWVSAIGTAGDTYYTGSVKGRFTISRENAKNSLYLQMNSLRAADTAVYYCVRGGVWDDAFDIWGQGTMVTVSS VL: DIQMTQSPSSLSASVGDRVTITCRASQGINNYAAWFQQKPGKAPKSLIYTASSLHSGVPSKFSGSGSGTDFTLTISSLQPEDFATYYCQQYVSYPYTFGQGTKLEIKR")
9.70
>>> numeric_value("Antibody D (antibody, human IgG1, kappa, L234A L235A, V domains shown) VH: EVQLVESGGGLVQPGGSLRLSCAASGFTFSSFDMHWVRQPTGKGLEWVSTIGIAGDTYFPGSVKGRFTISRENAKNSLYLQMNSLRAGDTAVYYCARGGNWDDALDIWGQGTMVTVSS VL: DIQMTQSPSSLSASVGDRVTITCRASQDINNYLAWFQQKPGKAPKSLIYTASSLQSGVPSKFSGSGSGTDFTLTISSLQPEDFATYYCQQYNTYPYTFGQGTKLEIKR")
9.40
